// provenance: the supplement of paper PMC9170038

- Test system: MS2 coat protein
- METHOD SUMMARY: apparent KD of MS2 coat protein; designed switch direction (-1 OFF switch, 1 ON switch): -1; higher = weaker reporter binding
- EXPERIMENTAL CONDITIONS: input ligand: none
ATTRIBUTE MEASURED: apparent KD of MS2 coat protein (nM)
Answers are plain numbers, in nM.

# annotated cases, reported apparent KD of MS2 coat protein shown
CGACCACAUGAGGAUCACCCAUGUCAGGAUAUGAGAGCCUUACGAAAGAGACGGCAGCUUAGAAGGGAUGCGGC [Eternabot (L1) Solution 74] (Eterna round: R97, puzzle: Exclusion 1) :: 26.9
CUAAAUCAUGUAGGAUAUGCGUGGCAAAGCUAUGCAGAAGGACAUGAGGAUCACCCAUGUCAUUCCGUCUGAGAACAGACGGGA [Mat - Exclusion NG 1 - Mod of JL - D51] (Eterna round: R96, puzzle: Exclusion NG 1) :: 22.1
CCAGCAAAUGUAAGGAUAUGCUGGUCCUUGGAUCAGCAGAAGGUACAUGAGGAUCACCCAUGUAGGUAAGCUGG [Eli bmx4 4.63] (Eterna round: R97, puzzle: Brourd's mod of Exclusion 4) :: 23.5
UUUUUAUAUGAAGGAUAUACUUAACAUGAGGAUCACCCAUGUGGUGUUGUGAGUGAGUGAGUUUAGUAGAAGGUCAAUGAUUUG [JMF's solution 63] (Eterna round: R96, puzzle: Exclusion NG 2) :: 563
CAUGAGGGAGGAUAUACAUGAGGAUCACCCAUGUAACUGGGAGUAGUUCUUCGUAGUCGUAGAAGGCCUGAGGG [Eternabot (L1) Solution 14] (Eterna round: R97, puzzle: Exclusion 3) :: 723
AACCUGAGGCAAAGCUUUAGGUGUACAUGAGGAUCACCCAUGUAGGAUAUGGUAGGCAAAGCUUACCAGAAGGACAUUUAGGUU [Mat - Exclusion NG 3 - Mod of JL - D44] (Eterna round: R96, puzzle: Exclusion NG 3) :: 52.1
AACCAGCGAGGAUAUGCUUGCGCUUGUUCUGGUUAUAAUCGACUUGAGGAUCACCCAAGUAGAAGGUGCUGGCG [EX2 #56] (Eterna round: R97, puzzle: Exclusion 2) :: 22.5
AGGGCACGAGGAUAUGUGAAACUGGACUUGAGGAUCACCCAAGUCGUCUUCGUGUCCAAAGCAGAAGGCGUGGCCA [Zaesce] (Eterna round: R97, puzzle: Exclusion 5) :: 10.4

Could you now consider this next sequence?
// apparent KD of MS2 coat protein value for ACCUAUGAGGAGGAUAUACAGUGCGAAAGGACAGUAGAAGGCUUCACAUGAGGAUCACCCAUGUCGAUAAGCGA [EX6 #83] (Eterna round: R97, puzzle: Exclusion 6) : 21.5

====

- System: MS2 coat protein
- METHOD SUMMARY: apparent KD of MS2 coat protein, switch ON state; designed switch direction (-1 OFF switch, 1 ON switch): -1; higher = weaker reporter binding
- EXPERIMENTAL CONDITIONS: FMN input: 0 or 200 uM; Eterna round: R93 (includes R88 designs)
ATTRIBUTE MEASURED: apparent KD of MS2 coat protein
Provide a numeric answer, followed by its unit.

Before answering, review these 5 worked examples.
AAAAAACAUGAGGAUCACCCAUGUGAGGAUAUCCAAAAGUCAAAGAAAAAGACGAAAAGGAGAAGGCACAAAAA [Banishment 2 - Jieux - Exclusion 1] :: 44.2 nM
AACAAGUGAGGAUAUCGGAAAAGAAAAUAAGAUACACAAAACGAGAAGGCACAUGAGGAUCACCCAUGUAAAUA [JR_Exc004_Sub012] :: 35.9 nM
AAAUAGCAAGGAUAUACAUGAGGAUCACCCAUGUGAAAAUGAUACGUAAUAGAAUAGAGUAGAAGGUGCAAAUA [Ex 3 Tesla 7] :: 25.1 nM
AAAAAGGAAGGAUAUACGAACAUGUCAAAAGACGUGAAGGGACAUGAGGAUCACCCAUGUAGAAGGUCUAAAAA [JL Half Open 26] :: 32.4 nM
AAAAGCACAGGAUAUACGGGAUUAUGACGAAAGUCAUAAAAACAUGAGGAUCACCCAUGUAGAAGGGUGCAAAA [Mod of Meechl's... 64% 2] :: 191 nM

Give apparent KD of MS2 coat protein for all sequences that follow.
1. AUCAUGUCAGGAUAUCAGUAGUAAAAAAAAAAAAUUACUACUGAGAAGGGACAUGAGGAUCACCCAUGUCCAAA [EX4 306: Super Stable 6]
2. AACAGUACAGGAUAUACAUGAGGAUCACCCAUGUAAAAUAAAUAAAAAUAAAAAGGGAGUAGAAGGGUACUGGA [Moding Maslow revisited (73) 19]
3. AAAAAGUCAGGAUAUGCGAAGGCGUCUGAUAGACGAGGCUAGCAGAAGGGACAUGAGGAUCACCCAUGUGGAAG [Mat - Exclusion 4 - Eli mod - D89]
4. AACAGUACAGGAUAUACAUGAGGAUCACCCAUGUGAAAAUUAAGUGGAAAACCACAAGGUAGAAGGGUACUGGA [Mat - Exclusion 3 - Eli mod - D63]
5. AGAAAGUCAGGAUAUGCAGAAAAAAAAACGAAAAAAAAACUGCAGAAGGGACAUGAGGAUCACCCAUGUUAAGA [Mat - Exclusion 4 - Mayanna - D130]
6. CGCAAACAUGAGGAUCACCCAUGUGAGGAUAUGUGAGCACGAGAAAGAUAAAGUGAGCACAGAAGGCACAAGCG [JR_Exclusion1_Sub6]
7. CUCUAGUUAGGAUAUGGAAGAAAAGAAAAGAAAGAAAAGAACCAGAAGGAACAUGAGGAUCACCCAUGUAAGAA [EteRNA is fun!]

stdout:
["32.1 nM", "37.2 nM", "81.3 nM", "21.6 nM", "49 nM", "34.8 nM", "45.5 nM"]

Input AGCAAGUGAGGAUAUGCGAAGUCAGGACACACACUGACGAAGCAGAAGGCACAUGAGGAUCACCCAUGUAAGCA [JR_Exclusion-4 65% 1] . Output apparent KD of MS2 coat protein: 33.1 nM
